# viability, T/C per record follows
- Tested on: 299254-011-R-J1-PDC complex spheroids viability
- measurement notes: Anticancer human tumor 299254-011-R-J1-PDC patient-derived melanoma cell line growth inhibition [GQUAD]
- measurement setup: second compound 0.1 µM; first compound 1 µM; hits give low values
# unit: % | format: bare number

Here's what some known entries look like.
• COc1ncnc(C2CC2)c1-c1ncc2cnn(Cc3ccc(-c4nc(C(F)(F)F)cn4C(C)C)cc3)c2n1 + CN(C)c1ccc(Nc2c3ccc(NC(=O)CCN4CCCC4)cc3nc3cc(NC(=O)CCN4CCCC4)ccc23)cc1 = 96.3
• CC1COCCN1c1cc(C2(O)CC3CCC(C2)O3)c2cnn(-c3ccn[nH]3)c2n1 (stereo not drawn) + Cc1[nH]c2ccc(F)cc2c1-c1nc2c3cccnc3c3ncccc3c2[nH]1 = 14.7

Below: the item to evaluate.
Lookup: Given O=C(c1cc(Cc2n[nH]c(=O)c3ccccc23)ccc1F)N1CCN(C(=O)C2CC2)CC1 + CN(C)c1ccc(Nc2c3ccc(NC(=O)CCN4CCCC4)cc3nc3cc(NC(=O)CCN4CCCC4)ccc23)cc1 , state its recorded viability, T/C.
Found: 96.8

====

- Tested on: 299254-011-R-J1-PDC complex spheroids viability
- measurement notes: Anticancer human tumor 299254-011-R-J1-PDC cell line growth inhibition [GQUAD];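 further: spheroids exposed to the agents for seven days before readout; percent viability relative to DMSO vehicle control wells = 100%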
- measurement setup: second compound 0.1 µM; first compound 1 µM; hits give low values
Reported viability, T/C by item:
Note: unit % is implicit; provide only the numeric part.

Known results for compounds:
- CC1COCCN1c1cc(-c2ccnn2C)c2ccnc(-c3ccn[nH]3)c2n1 (stereo not given) + CN(C)c1ccc(Nc2c3ccc(NC(=O)CCN4CCCC4)cc3nc3cc(NC(=O)CCN4CCCC4)ccc23)cc1: 20
- CC(C)n1c(=O)n(C)c2cnc3cc(F)c(-c4ccc(OCCCN5CCCCC5)nc4)cc3c21 + Cc1[nH]c2ccc(F)cc2c1-c1nc2c3cccnc3c3ncccc3c2[nH]1: 96.5
- COc1cccc2c1C(=O)c1c(O)c3c(c(O)c1C2=O)CC(O)(C(=O)CO)CC3OC1CC(N)C(O)C(C)O1 (stereo not given) + Cc1cnc(CNC(=O)c2c(=O)c3ccc(N4CCCN(C)CC4)nc3n3c2sc2ccccc23)cn1: 88.2

Lookup: Name the recorded viability, T/C for C#Cc1c(F)ccc2cc(O)cc(-c3ncc4c(N5CC6CCC(C5)N6)nc(OCC56CCCN5CC(F)C6)nc4c3F)c12 (stereo not given) + Cc1cnc(CNC(=O)c2c(=O)c3ccc(N4CCCN(C)CC4)nc3n3c2sc2ccccc23)cn1 .
Found: 91.7

Lookup: Now consider O=c1[nH]cc(F)c(=O)[nH]1 + Cc1cnc(CNC(=O)c2c(=O)c3ccc(N4CCCN(C)CC4)nc3n3c2sc2ccccc23)cn1 .
Found: 88.1

====

- Tested on: 299254-011-R-J1-PDC complex spheroids viability
- measurement notes: Anticancer human tumor 299254-011-R-J1-PDC cell line growth inhibition [GQUAD];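 further: spheroids exposed to the agents for seven days before readout; percent viability relative to DMSO vehicle control wells = 100%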
- measurement setup: second compound 0.316 µM; first compound 0.0316 µM; hits give low values
recorded metric: viability, T/C (%)
Answer in %, number only, no unit symbol.

Consider the reported viability, T/C for these molecules:
• O=c1[nH]cc(F)c(=O)[nH]1 + CN(C)c1ccc(Nc2c3ccc(NC(=O)CCN4CCCC4)cc3nc3cc(NC(=O)CCN4CCCC4)ccc23)cc1 = 89.2
• COc1ncnc(C2CC2)c1-c1ncc2cnn(Cc3ccc(-c4nc(C(F)(F)F)cn4C(C)C)cc3)c2n1 + Cc1[nH]c2ccc(F)cc2c1-c1nc2c3cccnc3c3ncccc3c2[nH]1 = 105
• COc1cc(C2c3cc4c(cc3C(OC3OC5COC(C)OC5C(O)C3O)C3COC(=O)C23)OCO4)cc(OC)c1O (stereo not given) + Cc1cnc(CNC(=O)c2c(=O)c3ccc(N4CCCN(C)CC4)nc3n3c2sc2ccccc23)cn1 = 90
• COc1ncnc(C2CC2)c1-c1ncc2cnn(Cc3ccc(-c4nc(C(F)(F)F)cn4C(C)C)cc3)c2n1 + CN(C)c1ccc(Nc2c3ccc(NC(=O)CCN4CCCC4)cc3nc3cc(NC(=O)CCN4CCCC4)ccc23)cc1 = 101

Lookup: # lookup: viability, T/C of COc1cccc2c1C(=O)c1c(O)c3c(c(O)c1C2=O)CC(O)(C(=O)CO)CC3OC1CC(N)C(O)C(C)O1 (stereo not given) + Cc1[nH]c2ccc(F)cc2c1-c1nc2c3cccnc3c3ncccc3c2[nH]1
Found: 94.2
